- Tested on: human peripheral blood mononuclear cells (PBMCs)
- experiment notes: Human PBMC activation assay, cytokine levels (IL-10, IL-6, MCP-1, TNF-α) in supernatant after 24 hours (Example 9)
- stated conditions: human PBMC supernatant after 24 hours; 8 μM oligonucleotide
Catalogue of substances with associated Levels of IL-10

| substance | Levels of IL-10, pg/mL |
| --- | --- |
| 798781 (CGTAAGATTCACAGCA; 3-10-3 cEt gapmer, further chemistry not given here) [compound 798781] | 2.9 |
| 829994 (GGAGGCAGGGCCGCGA; 3-10-3 cEt gapmer, further chemistry not given here) [compound 829994] | 8.0 |
| 736697 (antisense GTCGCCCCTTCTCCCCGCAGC; chemistry not fully specified) [compound 736697] | 4.2 |
| 830025 (antisense TTTGTAAATCGAAAGC; 3-10-3 cEt gapmer, further chemistry not given here) [compound 830025] | 2.9 |

* * *

Catalogue of substances with associated % Inhibition
- Tested on: human SMAD7 mRNA
- experiment notes: Antisense inhibition of human SMAD7 mRNA expression in Hep3B cells by 3-10-3 cEt gapmers, 10,000 nM, electroporation (Example 2)
- Assay type: cell-based
- stated conditions: Hep3B cells, 10,000 nM antisense oligonucleotide, electroporation, approximately 24 hours, RT-PCR primer probe set RTS5062, relative to untreated control cells
Strand notation (5' to 3'): a small letter for the sugar, then the base; units joined by * are phosphorothioate-linked, units joined directly phosphodiester-linked; [ ] holds rarer units or linkages, { } end groups; capitals alone tell only the bases. k = constrained ethyl (cEt); [5mC] = 5-methylcytosine; d = 2'-deoxy (DNA)

| substance | target entity | % Inhibition / % |
| --- | --- | --- |
| 800090 (antisense k[5mC]*kA*k[5mC]*d[5mC]*dT*dA*dT*dG*d[5mC]*dG*dA*dT*dG*kG*kT*k[5mC]) [compound 800090] | human SMAD7 mRNA | 0 |
| 798874 (kG*k[5mC]*kA*dG*dG*d[5mC]*dT*dG*dT*dA*d[5mC]*dG*d[5mC]*k[5mC]*kT*kT; antisense) [compound 798874] | human SMAD7 mRNA | 27 |
| 798853 (k[5mC]*k[5mC]*kA*d[5mC]*dA*d[5mC]*dA*d[5mC]*d[5mC]*dA*dT*d[5mC]*d[5mC]*kA*k[5mC]*k[5mC]; antisense) [compound 798853] | human SMAD7 mRNA | 7 |
| 799851 (kA*kA*kG*dT*dG*dT*d[5mC]*d[5mC]*dA*dT*d[5mC]*dA*dA*kG*k[5mC]*kA; antisense) [compound 799851] | human SMAD7 mRNA | 70 |
| 799975 (kT*k[5mC]*kT*dT*d[5mC]*dA*dG*dG*dG*dA*d[5mC]*dA*dA*kG*k[5mC]*k[5mC]; antisense) [compound 799975] | human SMAD7 mRNA | 38 |
| 798857 (kT*kG*k[5mC]*dT*dG*d[5mC]*dG*dG*dT*dT*dG*dT*dA*k[5mC]*kA*k[5mC]; antisense) [compound 798857] | human SMAD7 mRNA | 11 |

* * *

- Tested on: human SMAD7 mRNA
- experiment notes: Antisense inhibition of human SMAD7 mRNA expression in Hep3B cells by 3-10-3 cEt gapmers, 10,000 nM, electroporation (Example 2)
- Format: cell-based
- stated conditions: Hep3B cells, electroporation with 10,000 nM antisense oligonucleotide, approximately 24 hours, SMAD7 mRNA by RT-PCR (RTS5062), relative to untreated control cells
Strand notation (5' to 3'): a small letter for the sugar, then the base; units joined by * are phosphorothioate-linked, units joined directly phosphodiester-linked; [ ] holds rarer units or linkages, { } end groups; capitals alone tell only the bases. k = constrained ethyl (cEt); [5mC] = 5-methylcytosine; d = 2'-deoxy (DNA)
Consider the following partition of reported % Inhibition into named classes: bucket 1 = under 9%, bucket 2 = from 9% up to 40%, bucket 3 = 40% and over

| substance | class |
| --- | --- |
| 830054 (kT*kG*kG*dG*dT*dG*dA*dG*dT*dA*dA*d[5mC]*d[5mC]*kA*kG*k[5mC]; antisense) [compound 830054] | bucket 3 |
| 798845 (k[5mC]*kG*k[5mC]*dA*d[5mC]*d[5mC]*dT*dT*d[5mC]*dT*dG*d[5mC]*dA*k[5mC]*k[5mC]*kA; antisense) [compound 798845] | bucket 2 |
| 799328 (kA*kT*kG*d[5mC]*dA*d[5mC]*dA*d[5mC]*dT*d[5mC]*dT*d[5mC]*d[5mC]*k[5mC]*kA*kG; antisense) [compound 799328] | bucket 1 |
| 830182 (antisense kG*kT*kG*dT*d[5mC]*d[5mC]*dT*dT*d[5mC]*dA*dG*dA*dA*k[5mC]*kA*k[5mC]) [compound 830182] | bucket 1 |
| 772556 (antisense kA*kG*k[5mC]*dA*dG*dG*dA*dG*dG*d[5mC]*dA*d[5mC]*dG*k[5mC]*kG*kG) [compound 772556] | bucket 3 |
| 772889 (k[5mC]*kT*k[5mC]*d[5mC]*dA*dT*dT*d[5mC]*dA*dT*dA*dA*dT*kA*kT*kT; antisense) [compound 772889] | bucket 1 |
| 799241 (kA*kT*kT*d[5mC]*dT*d[5mC]*d[5mC]*dG*dT*dA*dT*dT*dT*kA*k[5mC]*kT; antisense) [compound 799241] | bucket 2 |
| 799949 (antisense kA*k[5mC]*kT*dG*dG*d[5mC]*d[5mC]*dG*dA*dA*dG*dT*dG*k[5mC]*kA*kG) [compound 799949] | bucket 2 |
| 830139 (antisense kT*kG*kG*dA*dG*dT*dT*dG*d[5mC]*dA*dT*dG*d[5mC]*k[5mC]*kT*kT) [compound 830139] | bucket 3 |
| 830036 (antisense kT*kA*kT*dT*dG*dG*d[5mC]*dT*dG*dA*dT*d[5mC]*dT*kG*kG*kA) [compound 830036] | bucket 3 |
| 830067 (kG*kA*kA*dA*dT*dG*dG*dT*dG*d[5mC]*dT*d[5mC]*dT*kG*k[5mC]*k[5mC]; antisense) [compound 830067] | bucket 3 |
| 799985 (kA*kA*k[5mC]*dA*dT*d[5mC]*dA*d[5mC]*d[5mC]*dA*d[5mC]*dG*d[5mC]*k[5mC]*kT*k[5mC]; antisense) [compound 799985] | bucket 3 |
| 799415 (antisense kG*k[5mC]*k[5mC]*dA*d[5mC]*dA*dG*d[5mC]*dA*dG*d[5mC]*dT*dG*kG*k[5mC]*kA) [compound 799415] | bucket 1 |
| 830114 (kG*kA*kG*d[5mC]*d[5mC]*d[5mC]*d[5mC]*dA*dT*dT*d[5mC]*dA*dT*kT*kA*kA; antisense) [compound 830114] | bucket 2 |
| 830194 (antisense k[5mC]*k[5mC]*kT*dT*dT*dT*d[5mC]*d[5mC]*dG*dG*dT*dA*dT*kT*kT*kT) [compound 830194] | bucket 3 |
| 798905 (kG*kG*k[5mC]*dT*dG*dT*dT*dG*dA*dA*dG*dA*dT*kG*kA*k[5mC]; antisense) [compound 798905] | bucket 2 |
| 798829 (kG*kA*kT*dA*dT*d[5mC]*d[5mC]*dA*dG*dA*dG*dA*dG*kG*kG*k[5mC]; antisense) [compound 798829] | bucket 1 |
| 799333 (kA*kG*kA*dA*dA*dA*d[5mC]*d[5mC]*dT*dG*dG*dA*dA*kG*kG*kG; antisense) [compound 799333] | bucket 2 |
| 799255 (antisense k[5mC]*kA*kA*dA*dA*d[5mC]*dT*d[5mC]*d[5mC]*dA*dA*dA*dG*kG*kT*kG) [compound 799255] | bucket 1 |
| 800001 (k[5mC]*kA*kA*dG*dA*dT*dT*d[5mC]*d[5mC]*dA*dT*dT*dT*kA*kG*kG; antisense) [compound 800001] | bucket 1 |
| 799486 (antisense k[5mC]*kA*kT*dA*dA*dT*dG*dA*d[5mC]*dT*dT*dA*dT*k[5mC]*k[5mC]*kA) [compound 799486] | bucket 3 |
